Molecular target: kappa opioid receptor (KOR) (Homo sapiens, UniProt P41145)
Construct: NIMH Psychoactive Drug Screening Program (PDSP), University of North Carolina at Chapel Hill (performed the assay)
Sequence (P41145 whole entry): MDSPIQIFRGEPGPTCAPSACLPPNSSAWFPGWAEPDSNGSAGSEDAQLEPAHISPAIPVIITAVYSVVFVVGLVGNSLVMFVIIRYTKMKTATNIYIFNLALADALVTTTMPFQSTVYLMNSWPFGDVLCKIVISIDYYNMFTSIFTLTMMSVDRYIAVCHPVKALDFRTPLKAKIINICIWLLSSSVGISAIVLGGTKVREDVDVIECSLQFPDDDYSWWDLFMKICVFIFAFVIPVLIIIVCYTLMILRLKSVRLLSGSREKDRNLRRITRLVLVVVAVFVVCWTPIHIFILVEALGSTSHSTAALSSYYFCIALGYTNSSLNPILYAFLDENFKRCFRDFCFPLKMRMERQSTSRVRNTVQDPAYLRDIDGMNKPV
Assay: Receptor binding, kappa opioid receptor (NIMH PDSP)
Where a SMILES comes first, the peptide text is derived from it. Bridges are numbered along the chain shown (N, C = ends). [ ]: non-standard residue; d: D form. The star is where a group is joined. ξ: configuration not given here. βGlc = OC[C@H]1O[C@@H](*)[C@H](O)[C@@H](O)[C@@H]1O; ξ1Nal = NC(Cc1cccc2ccccc12)C(=O)O
value_kind: KOR binding, in words

>>> observed_measurement("NC(=O)[C@H](CO[C@@H]1O[C@H](CO)[C@@H](O)[C@H](O)[C@H]1O)NC(=O)CNC(=O)[C@@H]1CCC(=O)NCCCC[C@@H](NC(=O)[C@@H](N)Cc2ccc(O)cc2)C(=O)N[C@@H](Cc2c[nH]c3ccccc23)C(=O)N[C@@H](Cc2ccccc2)C(=O)N1 [Analog A3]")
"increased KOR affinity"
>>> observed_measurement("NC(=O)[C@H](CO[C@@H]1O[C@H](CO)[C@@H](O)[C@H](O)[C@H]1O)NC(=O)[C@@H]1CCC(=O)NCCCC[C@@H](NC(=O)[C@@H](N)Cc2ccc(O)cc2)C(=O)NC(Cc2cccc3ccccc23)C(=O)N[C@@H](Cc2ccccc2)C(=O)N1 (some centres unmarked) [Analog A6] (H-Y[dK][ξ1Nal]FES(βGlc)-NH2; lactam 2-5)")
"increased KOR affinity"
